The following variants are shown together with reported normalized RNA/DNA level with ligand (log10) values.
B1: library; a variant is named by its letters at N, in order (parent)
chain: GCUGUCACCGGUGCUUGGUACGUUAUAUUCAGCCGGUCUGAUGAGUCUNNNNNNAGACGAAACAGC

# Variants of: B1
# TEST_NAME: normalized RNA/DNA level with ligand (relative to sTRSVctl = 100) (log10 (% of sTRSVctl)); HEK293T overexpressing SLC46A1; ligand concentration (+) RNA-Seq: 6 mM; higher = less ribozyme self-cleavage, higher mRNA level
# MEASUREMENT_CONTEXT: with (6R,S)-folinic acid; ligand present: yes
ENDPOINT_LABEL: normalized RNA/DNA level with ligand (log10)

SEQUENCE_STRING	MEAS_VALUE
GCUGUCACCGGUGCUUGGUACGUUAUAUUCAGCCGGUCUGAUGAGUCUUGCUAUAGACGAAACAGC [UGCUAU]	2.05
GCUGUCACCGGUGCUUGGUACGUUAUAUUCAGCCGGUCUGAUGAGUCUCUGCGUAGACGAAACAGC [CUGCGU]	2.06
GCUGUCACCGGUGCUUGGUACGUUAUAUUCAGCCGGUCUGAUGAGUCUUGAUGUAGACGAAACAGC [UGAUGU]	2.02
GCUGUCACCGGUGCUUGGUACGUUAUAUUCAGCCGGUCUGAUGAGUCUGUCUGUAGACGAAACAGC [GUCUGU]	2.06
GCUGUCACCGGUGCUUGGUACGUUAUAUUCAGCCGGUCUGAUGAGUCUCGGGCGAGACGAAACAGC [CGGGCG]	2.04
GCUGUCACCGGUGCUUGGUACGUUAUAUUCAGCCGGUCUGAUGAGUCUAGUCCAAGACGAAACAGC [AGUCCA]	2.02
GCUGUCACCGGUGCUUGGUACGUUAUAUUCAGCCGGUCUGAUGAGUCUUUCUAUAGACGAAACAGC [UUCUAU]	2.05
GCUGUCACCGGUGCUUGGUACGUUAUAUUCAGCCGGUCUGAUGAGUCUUAAUGCAGACGAAACAGC [UAAUGC]	1.98
GCUGUCACCGGUGCUUGGUACGUUAUAUUCAGCCGGUCUGAUGAGUCUAGACUAAGACGAAACAGC [AGACUA]	1.98
GCUGUCACCGGUGCUUGGUACGUUAUAUUCAGCCGGUCUGAUGAGUCUAGUAAUAGACGAAACAGC [AGUAAU]	2
GCUGUCACCGGUGCUUGGUACGUUAUAUUCAGCCGGUCUGAUGAGUCUAAAGCCAGACGAAACAGC [AAAGCC]	2.05
GCUGUCACCGGUGCUUGGUACGUUAUAUUCAGCCGGUCUGAUGAGUCUAAUCGUAGACGAAACAGC [AAUCGU]	2.01
GCUGUCACCGGUGCUUGGUACGUUAUAUUCAGCCGGUCUGAUGAGUCUCCGCGCAGACGAAACAGC [CCGCGC]	2.05
GCUGUCACCGGUGCUUGGUACGUUAUAUUCAGCCGGUCUGAUGAGUCUGAGAUAAGACGAAACAGC [GAGAUA]	2.03
GCUGUCACCGGUGCUUGGUACGUUAUAUUCAGCCGGUCUGAUGAGUCUAAAAUUAGACGAAACAGC [AAAAUU]	2.02
GCUGUCACCGGUGCUUGGUACGUUAUAUUCAGCCGGUCUGAUGAGUCUGUUCCCAGACGAAACAGC [GUUCCC]	2.05
GCUGUCACCGGUGCUUGGUACGUUAUAUUCAGCCGGUCUGAUGAGUCUAUGAUUAGACGAAACAGC [AUGAUU]	2.02
GCUGUCACCGGUGCUUGGUACGUUAUAUUCAGCCGGUCUGAUGAGUCUGACCGCAGACGAAACAGC [GACCGC]	2.02
GCUGUCACCGGUGCUUGGUACGUUAUAUUCAGCCGGUCUGAUGAGUCUCUAGGGAGACGAAACAGC [CUAGGG]	2.02
GCUGUCACCGGUGCUUGGUACGUUAUAUUCAGCCGGUCUGAUGAGUCUGGCGGUAGACGAAACAGC [GGCGGU]	2.03
GCUGUCACCGGUGCUUGGUACGUUAUAUUCAGCCGGUCUGAUGAGUCUCAUCGCAGACGAAACAGC [CAUCGC]	1.99
GCUGUCACCGGUGCUUGGUACGUUAUAUUCAGCCGGUCUGAUGAGUCUAAUGAGAGACGAAACAGC [AAUGAG]	1.97
GCUGUCACCGGUGCUUGGUACGUUAUAUUCAGCCGGUCUGAUGAGUCUCUGGCCAGACGAAACAGC [CUGGCC]	2.03
GCUGUCACCGGUGCUUGGUACGUUAUAUUCAGCCGGUCUGAUGAGUCUCGCCUCAGACGAAACAGC [CGCCUC]	1.99
GCUGUCACCGGUGCUUGGUACGUUAUAUUCAGCCGGUCUGAUGAGUCUACCGCGAGACGAAACAGC [ACCGCG]	2.05
GCUGUCACCGGUGCUUGGUACGUUAUAUUCAGCCGGUCUGAUGAGUCUGUCGUUAGACGAAACAGC [GUCGUU]	2.02
GCUGUCACCGGUGCUUGGUACGUUAUAUUCAGCCGGUCUGAUGAGUCUAGGGUUAGACGAAACAGC [AGGGUU]	2.01
GCUGUCACCGGUGCUUGGUACGUUAUAUUCAGCCGGUCUGAUGAGUCUCGGGAUAGACGAAACAGC [CGGGAU]	2
GCUGUCACCGGUGCUUGGUACGUUAUAUUCAGCCGGUCUGAUGAGUCUUCAAGUAGACGAAACAGC [UCAAGU]	2.02
GCUGUCACCGGUGCUUGGUACGUUAUAUUCAGCCGGUCUGAUGAGUCUGCAAAAAGACGAAACAGC [GCAAAA]	2
GCUGUCACCGGUGCUUGGUACGUUAUAUUCAGCCGGUCUGAUGAGUCUCCGAGUAGACGAAACAGC [CCGAGU]	2.03
GCUGUCACCGGUGCUUGGUACGUUAUAUUCAGCCGGUCUGAUGAGUCUAUCGUCAGACGAAACAGC [AUCGUC]	2.06
GCUGUCACCGGUGCUUGGUACGUUAUAUUCAGCCGGUCUGAUGAGUCUUCACGCAGACGAAACAGC [UCACGC]	1.97
GCUGUCACCGGUGCUUGGUACGUUAUAUUCAGCCGGUCUGAUGAGUCUCAAUAUAGACGAAACAGC [CAAUAU]	2
GCUGUCACCGGUGCUUGGUACGUUAUAUUCAGCCGGUCUGAUGAGUCUACCGCCAGACGAAACAGC [ACCGCC]	2.05
GCUGUCACCGGUGCUUGGUACGUUAUAUUCAGCCGGUCUGAUGAGUCUGUUGCCAGACGAAACAGC [GUUGCC]	2
GCUGUCACCGGUGCUUGGUACGUUAUAUUCAGCCGGUCUGAUGAGUCUACGUCAAGACGAAACAGC [ACGUCA]	2.03
GCUGUCACCGGUGCUUGGUACGUUAUAUUCAGCCGGUCUGAUGAGUCUGAGUGUAGACGAAACAGC [GAGUGU]	2.04
GCUGUCACCGGUGCUUGGUACGUUAUAUUCAGCCGGUCUGAUGAGUCUGCUCCGAGACGAAACAGC [GCUCCG]	2.05
GCUGUCACCGGUGCUUGGUACGUUAUAUUCAGCCGGUCUGAUGAGUCUUUGAACAGACGAAACAGC [UUGAAC]	2.02
GCUGUCACCGGUGCUUGGUACGUUAUAUUCAGCCGGUCUGAUGAGUCUUUCGCGAGACGAAACAGC [UUCGCG]	1.97
GCUGUCACCGGUGCUUGGUACGUUAUAUUCAGCCGGUCUGAUGAGUCUGUAGGAAGACGAAACAGC [GUAGGA]	2
GCUGUCACCGGUGCUUGGUACGUUAUAUUCAGCCGGUCUGAUGAGUCUCUUUUUAGACGAAACAGC [CUUUUU]	2.02
GCUGUCACCGGUGCUUGGUACGUUAUAUUCAGCCGGUCUGAUGAGUCUUUCAUAAGACGAAACAGC [UUCAUA]	1.99
GCUGUCACCGGUGCUUGGUACGUUAUAUUCAGCCGGUCUGAUGAGUCUUUGUACAGACGAAACAGC [UUGUAC]	2.02
GCUGUCACCGGUGCUUGGUACGUUAUAUUCAGCCGGUCUGAUGAGUCUGAUCGUAGACGAAACAGC [GAUCGU]	2.02
